Target: Induced myeloid leukemia cell differentiation protein Mcl-1 (Homo sapiens)
Assay: blockers of Bid binding to Mcl-1 – biochemical, TR-FRET, dose response (AID 1418)
Conditions: Mcl-1/Bid peptide binding, TR-FRET (europium/Dy647), 2 hr
Activity calls are given as the source filed them. No rule for the calls is given here.
Hello, when you answer, please use one of the following outcomes: active, inactive

# example entries with known answers
CC(/C=C1\SC(=S)N(CCCC(=O)Nc2ccc(C(=O)O)c(O)c2)C1=O)=C\c1ccccc1: active
CC1CC(C)CN(CCOCCSc2ccccc2)C1 (configuration not stated): inactive
O=C(Nc1ccccc1)NC1CCS(=O)(=O)C1 (configuration not stated): inactive

[in] Look up the recorded call for c1ccc2c(c1)ncn2CCCCOc1ccc2c(c1)CCC2 in this test.
[out] inactive
